Molecular target: T1, human IL2Rγ (endogenously expressed on cells) (human, UniProt P31785 23-369)
T1 sequence (looked up): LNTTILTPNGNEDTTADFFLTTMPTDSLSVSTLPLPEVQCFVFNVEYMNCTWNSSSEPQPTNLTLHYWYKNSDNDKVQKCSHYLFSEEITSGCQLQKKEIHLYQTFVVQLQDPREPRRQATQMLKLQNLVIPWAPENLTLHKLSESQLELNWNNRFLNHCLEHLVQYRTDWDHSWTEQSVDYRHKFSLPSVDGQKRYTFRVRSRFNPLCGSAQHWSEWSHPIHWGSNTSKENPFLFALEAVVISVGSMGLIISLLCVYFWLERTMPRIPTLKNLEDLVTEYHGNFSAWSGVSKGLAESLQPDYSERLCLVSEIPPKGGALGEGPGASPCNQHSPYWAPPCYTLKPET
Assay: cell-based or functional assay

{"columns": ["BINDER", "IC50; IL-9 20 pM; NK92/hIL7R/STAT3-luc"],
 "data": [
  ["H4H12874P (antibody, human IgG4 S228P, kappa, V domains shown, human IgG4) VH: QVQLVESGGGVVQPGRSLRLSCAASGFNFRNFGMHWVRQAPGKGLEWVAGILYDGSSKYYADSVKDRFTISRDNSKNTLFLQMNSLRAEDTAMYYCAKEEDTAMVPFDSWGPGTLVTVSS VL: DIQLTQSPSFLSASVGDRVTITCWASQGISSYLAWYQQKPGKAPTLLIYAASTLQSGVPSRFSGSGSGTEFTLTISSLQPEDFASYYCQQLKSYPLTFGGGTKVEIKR", "> 1e-07 M"]
]}
